Hello, the source for this data is patent US20180078561A1, in case you need it.

Test system: H4
Experiment: cell viability (CellTiterGlo), apilimod sensitivity
Type: cell-based
Settings: Homo sapiens, Human neuroglioma

# Sample smiles, IC50
rows = [
    ("Cc1cccc(/C=N/Nc2cc(N3CCOCC3)nc(OCCc3ccccn3)n2)c1", "250 to 300 nM"),
]

* * *

# collection of Kd values tested on PIKfyve (Homo sapiens, UniProt Q9Y2I7)
# Sequence (Q9Y2I7 whole entry): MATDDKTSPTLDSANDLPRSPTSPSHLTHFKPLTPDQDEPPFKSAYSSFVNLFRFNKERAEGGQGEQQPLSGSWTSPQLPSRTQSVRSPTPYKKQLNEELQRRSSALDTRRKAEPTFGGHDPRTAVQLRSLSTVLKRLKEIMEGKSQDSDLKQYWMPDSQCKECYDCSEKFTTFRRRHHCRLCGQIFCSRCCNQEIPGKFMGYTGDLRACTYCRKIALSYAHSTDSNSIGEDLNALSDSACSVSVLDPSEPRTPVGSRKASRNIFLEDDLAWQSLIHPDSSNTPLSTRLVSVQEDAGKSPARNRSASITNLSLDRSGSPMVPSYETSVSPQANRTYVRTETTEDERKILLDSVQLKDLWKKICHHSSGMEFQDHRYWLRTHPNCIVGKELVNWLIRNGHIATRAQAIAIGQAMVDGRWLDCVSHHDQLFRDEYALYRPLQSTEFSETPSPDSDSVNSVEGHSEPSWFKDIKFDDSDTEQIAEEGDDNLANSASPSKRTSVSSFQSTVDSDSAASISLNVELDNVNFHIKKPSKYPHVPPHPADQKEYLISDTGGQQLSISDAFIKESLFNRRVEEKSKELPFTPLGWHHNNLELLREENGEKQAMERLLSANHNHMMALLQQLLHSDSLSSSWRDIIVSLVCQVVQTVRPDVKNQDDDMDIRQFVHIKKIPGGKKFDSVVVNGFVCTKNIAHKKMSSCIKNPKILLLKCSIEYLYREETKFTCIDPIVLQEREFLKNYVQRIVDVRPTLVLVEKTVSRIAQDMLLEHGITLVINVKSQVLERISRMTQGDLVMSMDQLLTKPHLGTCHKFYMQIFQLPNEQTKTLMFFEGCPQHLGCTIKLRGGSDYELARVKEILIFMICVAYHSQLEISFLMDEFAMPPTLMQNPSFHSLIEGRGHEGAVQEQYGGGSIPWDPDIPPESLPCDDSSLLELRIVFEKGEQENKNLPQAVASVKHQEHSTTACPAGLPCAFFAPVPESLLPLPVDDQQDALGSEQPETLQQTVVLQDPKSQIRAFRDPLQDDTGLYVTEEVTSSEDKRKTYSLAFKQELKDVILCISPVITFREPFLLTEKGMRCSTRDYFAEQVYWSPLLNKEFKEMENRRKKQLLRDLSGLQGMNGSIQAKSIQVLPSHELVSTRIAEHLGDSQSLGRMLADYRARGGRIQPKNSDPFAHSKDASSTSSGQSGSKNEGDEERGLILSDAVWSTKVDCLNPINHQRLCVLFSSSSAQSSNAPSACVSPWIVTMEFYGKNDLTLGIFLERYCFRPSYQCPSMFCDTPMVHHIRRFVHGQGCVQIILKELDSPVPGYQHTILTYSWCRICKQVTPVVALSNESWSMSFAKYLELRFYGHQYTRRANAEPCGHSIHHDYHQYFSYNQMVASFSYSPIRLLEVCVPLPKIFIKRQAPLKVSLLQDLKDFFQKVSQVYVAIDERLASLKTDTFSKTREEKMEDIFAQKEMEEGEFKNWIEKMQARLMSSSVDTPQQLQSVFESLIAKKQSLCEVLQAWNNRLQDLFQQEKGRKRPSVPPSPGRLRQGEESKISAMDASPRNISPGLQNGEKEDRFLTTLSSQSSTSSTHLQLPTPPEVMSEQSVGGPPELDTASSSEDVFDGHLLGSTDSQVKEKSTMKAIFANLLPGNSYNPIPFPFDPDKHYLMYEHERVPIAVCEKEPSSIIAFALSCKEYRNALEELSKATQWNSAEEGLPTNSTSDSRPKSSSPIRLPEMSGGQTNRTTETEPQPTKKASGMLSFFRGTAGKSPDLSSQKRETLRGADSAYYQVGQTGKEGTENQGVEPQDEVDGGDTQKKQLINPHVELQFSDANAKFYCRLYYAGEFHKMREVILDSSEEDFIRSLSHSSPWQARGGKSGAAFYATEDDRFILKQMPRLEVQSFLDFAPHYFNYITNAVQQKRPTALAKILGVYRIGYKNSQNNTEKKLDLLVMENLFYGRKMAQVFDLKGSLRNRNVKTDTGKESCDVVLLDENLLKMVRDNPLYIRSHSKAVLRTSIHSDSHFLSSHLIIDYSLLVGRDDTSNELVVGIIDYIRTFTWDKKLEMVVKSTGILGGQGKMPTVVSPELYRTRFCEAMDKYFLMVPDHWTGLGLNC

# Compound, Kd / nM
records = [
    ("Cc1cccc(/C=N/Nc2cc(N3CCOCC3)nc(OCC(O)c3ccccn3)n2)c1 (stereo not drawn)", 0.09),
    ("Cc1cccc(/C=N/Nc2cc(N3CCOCC3)nc(OCCc3cccc[n+]3[O-])n2)c1", 0.061),
    ("Cc1cccc(/C=N/Nc2cc(N3CCOCC3)nc(OCC(O)c3cccc[n+]3[O-])n2)c1 (stereo not drawn)", 0.088),
]
